Reference source for all entries: patent US11912701B2

- TARGET_OR_SYSTEM: MKK4 (Homo sapiens, UniProt P45985)
- Construct: S84/D399; host or cells: HEK-293
- Sequence (P45985 84-399): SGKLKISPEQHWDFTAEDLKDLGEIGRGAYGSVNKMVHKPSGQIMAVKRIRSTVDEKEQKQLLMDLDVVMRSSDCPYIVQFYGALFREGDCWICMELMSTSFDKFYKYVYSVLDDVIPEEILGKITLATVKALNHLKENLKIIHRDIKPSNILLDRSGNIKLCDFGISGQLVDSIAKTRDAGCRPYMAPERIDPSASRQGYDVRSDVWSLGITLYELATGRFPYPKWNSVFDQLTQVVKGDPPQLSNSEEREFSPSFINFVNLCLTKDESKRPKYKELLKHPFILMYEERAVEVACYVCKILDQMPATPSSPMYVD
- ASSAY_DETAILS: KINOMEscan competition binding assay, MKK4
- RECORDED_CONDITIONS: residual percent of control binding (PoC) at 100 nM
MEASUREMENT_LABEL: MKK4 [% Ctrl @ 100 nM

MOLECULE: CCCS(=O)(=O)Nc1ccc(F)c(C(=O)c2c[nH]c3ncc(-c4ccc(C(F)(F)F)cc4)cc23)c1F [Example 106]
TARGET_OR_SYSTEM: MKK4 (Homo sapiens, UniProt P45985)
MEASUREMENT_LABEL: MKK4 [% Ctrl @ 100 nM
OBSERVED_VALUE: + (3 ≤ PoC < 30)
//
MOLECULE: CCCS(=O)(=O)Nc1ccc(F)c(C(=O)c2c[nH]c3ncc(-c4cccnc4)cc23)c1F [Example 58]
TARGET_OR_SYSTEM: MKK4 (Homo sapiens, UniProt P45985)
MEASUREMENT_LABEL: MKK4 [% Ctrl @ 100 nM
OBSERVED_VALUE: +++ (PoC < 1)
//
MOLECULE: CCCS(=O)(=O)Nc1ccc(F)c(C(=O)c2c[nH]c3ncc(-c4ccc(C(N)=O)cc4)cc23)c1F [Example 109]
TARGET_OR_SYSTEM: MKK4 (Homo sapiens, UniProt P45985)
MEASUREMENT_LABEL: MKK4 [% Ctrl @ 100 nM
OBSERVED_VALUE: +++ (PoC < 1)
//
MOLECULE: CCCS(=O)(=O)Nc1c(Cl)ccc(C(=O)c2c[nH]c3ncc(-c4ccc(Cl)cc4)cc23)c1F [Example 2d]
TARGET_OR_SYSTEM: MKK4 (Homo sapiens, UniProt P45985)
MEASUREMENT_LABEL: MKK4 [% Ctrl @ 100 nM
OBSERVED_VALUE: + (3 ≤ PoC < 30)
//
MOLECULE: O=C(c1ccc(F)c(NS(=O)(=O)CCC(F)(F)F)c1F)c1c[nH]c2ncc(-c3ccc(C(F)(F)F)nc3)cc12 [Example 148]
TARGET_OR_SYSTEM: MKK4 (Homo sapiens, UniProt P45985)
MEASUREMENT_LABEL: MKK4 [% Ctrl @ 100 nM
OBSERVED_VALUE: +++ (PoC < 1)
